Origin of values: ChEMBL document CHEMBL3044857

Tested on: Plasmodium falciparum
Experiment: Antimicrobial activity against Plasmodium falciparum
Format: functional, organism-based
measuredQuantity: IC50 (nM)
Give bare numbers, in nM.

Prompt: Dear colleague, I am looking for the recorded IC50 of the following molecule: N=C(N)c1ccc(-c2ccc(O)c(-c3nc4ccc(C(=N)N)cc4[nH]3)c2)cc1
Response: 2.1

* * *

System: Aorta
Test: Vasorelaxant activity in endothelium-denuded Rattus norvegicus (rat) aortic rings
Format: functional, tissue-based
I'd be grateful if you could share measured pIC50 for these entries.
Answers are plain numbers, as −log10 of the molar value.

molSmiles | pIC50
COc1ccc(-c2nc3cc([N+](=O)[O-])ccc3[nH]2)cc1 | 5.44

Let's switch to this compound now.
Prompt: If you can, please state the reported pIC50 value of O=[N+]([O-])c1ccc2nc(-c3ccccc3O)[nH]c2c1 .
Response: 5.70
